measurement.target: human recombinant TPC2 (hTPC2, HA-HsTPC2) (Homo sapiens)
Sequence (Q8NHX9 whole entry): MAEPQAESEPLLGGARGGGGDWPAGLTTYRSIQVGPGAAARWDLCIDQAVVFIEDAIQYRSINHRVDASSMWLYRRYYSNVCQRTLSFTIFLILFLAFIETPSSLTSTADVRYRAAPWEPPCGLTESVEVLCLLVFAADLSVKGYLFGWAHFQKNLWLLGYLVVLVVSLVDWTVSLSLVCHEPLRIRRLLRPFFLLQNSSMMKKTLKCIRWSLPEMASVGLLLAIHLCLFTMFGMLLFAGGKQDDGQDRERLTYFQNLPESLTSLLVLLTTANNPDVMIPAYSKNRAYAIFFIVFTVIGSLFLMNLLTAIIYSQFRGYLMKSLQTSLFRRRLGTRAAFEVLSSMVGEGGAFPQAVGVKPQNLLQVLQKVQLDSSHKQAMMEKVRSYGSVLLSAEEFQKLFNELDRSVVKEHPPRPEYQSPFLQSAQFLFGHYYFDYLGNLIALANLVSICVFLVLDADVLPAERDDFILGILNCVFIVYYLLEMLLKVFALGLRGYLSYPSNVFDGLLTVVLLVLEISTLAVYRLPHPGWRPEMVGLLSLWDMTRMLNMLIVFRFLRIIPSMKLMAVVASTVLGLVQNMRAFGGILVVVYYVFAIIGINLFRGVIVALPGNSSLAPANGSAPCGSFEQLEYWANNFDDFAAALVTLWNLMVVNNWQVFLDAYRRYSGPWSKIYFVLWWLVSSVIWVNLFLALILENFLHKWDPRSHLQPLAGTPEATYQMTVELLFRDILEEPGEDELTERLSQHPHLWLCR
assay.procedure: single-channel recording in planar lipid bilayer, open probability
quantity: EC50 (nM)
State just the number; it will be interpreted in nM.

Ask: Form: Entry = Nc1ncnc2c1ncn2[C@@H]1O[C@H](COP(=O)(O)OP(=O)(O)OC[C@H]2O[C@@H]([n+]3cccc(C(=O)O)c3)[C@H](O)[C@@H]2O)[C@@H](O)[C@H]1OP(=O)(O)O | System = human recombinant TPC2 (hTPC2, HA-HsTPC2) (Homo sapiens) | EC50 = ____
Reply: 500
